tested on: LNCaP tumor-bearing male CB-17 SCID mice; assay: Biodistribution studies 24 h p.i.; settings: mean
OBSERVATION TYPE: uptake in liver (% iD/g)

MOLECULE	OBSERVATION TYPE	NUMERIC VALUE
CC(C)(C)[Si](F)(c1ccc(C(=O)NC[C@@H](NC(=O)CN2CCN(CC(=O)O)CCN(CC(=O)O)CCN(CC(=O)O)CC2)C(=O)N[C@H](CO)C(=O)NCCC(=O)NCCC(=O)NCCC[C@@H](NC(=O)CC[C@H](NC(=O)N[C@@H](CCC(=O)O)C(=O)O)C(=O)O)C(=O)O)cc1)C(C)(C)C [Compound 2C013]	uptake in liver	0.2519

* * *

tested on: LNCaP tumor-bearing male CB-17 SCID mice; test: Biodistribution studies 24 h p.i.; conditions: mean

COMPOUND	TESTED SYSTEM	uptake in parotid gl. [% iD/g]
CC(C)(C)[Si](F)(c1ccc(C(=O)NC[C@@H](NC(=O)[C@@H](CCCNC(N)=O)NC(=O)CC[C@@H](C(=O)O)N2CCN(CC(=O)O)CCN(CC(=O)O)CCN(CC(=O)O)CC2)C(=O)NCCCCCC(=O)NCCC[C@@H](NC(=O)CC[C@H](NC(=O)N[C@@H](CCC(=O)O)C(=O)O)C(=O)O)C(=O)O)cc1)C(C)(C)C	LNCaP tumor-bearing male CB-17 SCID mice	0.09
CC(C)(C)[Si](F)(c1ccc(C(=O)NCC(NC(=O)CCC(C(=O)O)N2CCN(CC(=O)O)CCN(CC(=O)O)CCN(CC(=O)O)CC2)C(=O)NC(CN)C(=O)NCCC(=O)NCCC(=O)NCCCC(NC(=O)CCC(NC(=O)NC(CCC(=O)O)C(=O)O)C(=O)O)C(=O)O)cc1)C(C)(C)C (stereo not shown)	LNCaP tumor-bearing male CB-17 SCID mice	0.0857
CC(C)(C)[Si](F)(c1ccc(C(=O)NC[C@@H](NC(=O)CN2CCN(CC(=O)O)CCN(CC(=O)O)CCN(CC(=O)O)CC2)C(=O)N[C@H](CO)C(=O)NCCC(=O)NCCC(=O)NCCC[C@@H](NC(=O)CC[C@H](NC(=O)N[C@@H](CCC(=O)O)C(=O)O)C(=O)O)C(=O)O)cc1)C(C)(C)C	LNCaP tumor-bearing male CB-17 SCID mice	0.0554
CC(C)(C)[Si](F)(c1ccc(C(=O)NC[C@@H](NC(=O)[C@@H](CCCNC(N)=O)NC(=O)CC[C@H](C(=O)O)N2CCN(CC(=O)O)CCN(CC(=O)O)CCN(CC(=O)O)CC2)C(=O)NCCCCCC(=O)NCCC[C@@H](NC(=O)CC[C@H](NC(=O)N[C@@H](CCC(=O)O)C(=O)O)C(=O)O)C(=O)O)cc1)C(C)(C)C	LNCaP tumor-bearing male CB-17 SCID mice	0.0674

* * *

As shown below, each of these compounds has a reported uptake in liver value.
system: LNCaP tumor-bearing male CB-17 SCID mice; experiment: Biodistribution studies 24 h p.i.; conditions: mean

COMPOUND	uptake in liver
CC(C)(C)[Si](F)(c1ccc(C(=O)NC[C@@H](NC(=O)[C@@H](CCCNC(N)=O)NC(=O)CC[C@@H](C(=O)O)N2CCN(CC(=O)O)CCN(CC(=O)O)CCN(CC(=O)O)CC2)C(=O)NCCCCCC(=O)NCCC[C@@H](NC(=O)CC[C@H](NC(=O)N[C@@H](CCC(=O)O)C(=O)O)C(=O)O)C(=O)O)cc1)C(C)(C)C	0.2376 % iD/g
CC(C)(C)[Si](F)(c1ccc(C(=O)NCC(NC(=O)CCC(C(=O)O)N2CCN(CC(=O)O)CCN(CC(=O)O)CCN(CC(=O)O)CC2)C(=O)NC(CN)C(=O)NCCC(=O)NCCC(=O)NCCCC(NC(=O)CCC(NC(=O)NC(CCC(=O)O)C(=O)O)C(=O)O)C(=O)O)cc1)C(C)(C)C (stereo not drawn)	0.2848 % iD/g
CC(C)(C)[Si](F)(c1ccc(C(=O)NC[C@@H](NC(=O)[C@@H](CCCNC(N)=O)NC(=O)CC[C@H](C(=O)O)N2CCN(CC(=O)O)CCN(CC(=O)O)CCN(CC(=O)O)CC2)C(=O)NCCCCCC(=O)NCCC[C@@H](NC(=O)CC[C@H](NC(=O)N[C@@H](CCC(=O)O)C(=O)O)C(=O)O)C(=O)O)cc1)C(C)(C)C	0.164 % iD/g

* * *

system: LNCaP tumor-bearing male CB-17 SCID mice; assay: Biodistribution studies 24 h p.i.; settings: mean
OBSERVATION TYPE: uptake in stomach (% iD/g)

MOLECULE	NUMERIC VALUE
CC(C)(C)[Si](F)(c1ccc(C(=O)NCC(NC(=O)CCC(C(=O)O)N2CCN(CC(=O)O)CCN(CC(=O)O)CCN(CC(=O)O)CC2)C(=O)NC(CN)C(=O)NCCC(=O)NCCC(=O)NCCCC(NC(=O)CCC(NC(=O)NC(CCC(=O)O)C(=O)O)C(=O)O)C(=O)O)cc1)C(C)(C)C (stereo not shown)	0.0829
CC(C)(C)[Si](F)(c1ccc(C(=O)NC[C@@H](NC(=O)[C@@H](CCCNC(N)=O)NC(=O)CC[C@@H](C(=O)O)N2CCN(CC(=O)O)CCN(CC(=O)O)CCN(CC(=O)O)CC2)C(=O)NCCCCCC(=O)NCCC[C@@H](NC(=O)CC[C@H](NC(=O)N[C@@H](CCC(=O)O)C(=O)O)C(=O)O)C(=O)O)cc1)C(C)(C)C	0.0367
CC(C)(C)[Si](F)(c1ccc(C(=O)NC[C@@H](NC(=O)[C@@H](CCCNC(N)=O)NC(=O)CC[C@H](C(=O)O)N2CCN(CC(=O)O)CCN(CC(=O)O)CCN(CC(=O)O)CC2)C(=O)NCCCCCC(=O)NCCC[C@@H](NC(=O)CC[C@H](NC(=O)N[C@@H](CCC(=O)O)C(=O)O)C(=O)O)C(=O)O)cc1)C(C)(C)C	0.036
CC(C)(C)[Si](F)(c1ccc(C(=O)NC[C@@H](NC(=O)CN2CCN(CC(=O)O)CCN(CC(=O)O)CCN(CC(=O)O)CC2)C(=O)N[C@H](CO)C(=O)NCCC(=O)NCCC(=O)NCCC[C@@H](NC(=O)CC[C@H](NC(=O)N[C@@H](CCC(=O)O)C(=O)O)C(=O)O)C(=O)O)cc1)C(C)(C)C	0.0846

* * *

test system: LNCaP tumor-bearing male CB-17 SCID mice; assay: Biodistribution studies 24 h p.i.; conditions: mean

MOLECULE	uptake in pancreas / % iD/g
CC(C)(C)[Si](F)(c1ccc(C(=O)NCC(NC(=O)CCC(C(=O)O)N2CCN(CC(=O)O)CCN(CC(=O)O)CCN(CC(=O)O)CC2)C(=O)NC(CN)C(=O)NCCC(=O)NCCC(=O)NCCCC(NC(=O)CCC(NC(=O)NC(CCC(=O)O)C(=O)O)C(=O)O)C(=O)O)cc1)C(C)(C)C (stereo not shown) [Compound 2C011]	0.0264
CC(C)(C)[Si](F)(c1ccc(C(=O)NC[C@@H](NC(=O)[C@@H](CCCNC(N)=O)NC(=O)CC[C@H](C(=O)O)N2CCN(CC(=O)O)CCN(CC(=O)O)CCN(CC(=O)O)CC2)C(=O)NCCCCCC(=O)NCCC[C@@H](NC(=O)CC[C@H](NC(=O)N[C@@H](CCC(=O)O)C(=O)O)C(=O)O)C(=O)O)cc1)C(C)(C)C [Compound 2C015]	0.0212
CC(C)(C)[Si](F)(c1ccc(C(=O)NC[C@@H](NC(=O)CN2CCN(CC(=O)O)CCN(CC(=O)O)CCN(CC(=O)O)CC2)C(=O)N[C@H](CO)C(=O)NCCC(=O)NCCC(=O)NCCC[C@@H](NC(=O)CC[C@H](NC(=O)N[C@@H](CCC(=O)O)C(=O)O)C(=O)O)C(=O)O)cc1)C(C)(C)C [Compound 2C013]	0.0165
CC(C)(C)[Si](F)(c1ccc(C(=O)NC[C@@H](NC(=O)[C@@H](CCCNC(N)=O)NC(=O)CC[C@@H](C(=O)O)N2CCN(CC(=O)O)CCN(CC(=O)O)CCN(CC(=O)O)CC2)C(=O)NCCCCCC(=O)NCCC[C@@H](NC(=O)CC[C@H](NC(=O)N[C@@H](CCC(=O)O)C(=O)O)C(=O)O)C(=O)O)cc1)C(C)(C)C [Compound 2C014]	0.0192

* * *

system: LNCaP tumor-bearing male CB-17 SCID mice; experiment: Biodistribution studies 24 h p.i.; settings: mean
Entries annotated with measured uptake in blood
OBSERVATION TYPE: uptake in blood

COMPOUND	RESULT
CC(C)(C)[Si](F)(c1ccc(C(=O)NCC(NC(=O)CCC(C(=O)O)N2CCN(CC(=O)O)CCN(CC(=O)O)CCN(CC(=O)O)CC2)C(=O)NC(CN)C(=O)NCCC(=O)NCCC(=O)NCCCC(NC(=O)CCC(NC(=O)NC(CCC(=O)O)C(=O)O)C(=O)O)C(=O)O)cc1)C(C)(C)C (stereo not shown)	0.0042 % iD/g
CC(C)(C)[Si](F)(c1ccc(C(=O)NC[C@@H](NC(=O)[C@@H](CCCNC(N)=O)NC(=O)CC[C@@H](C(=O)O)N2CCN(CC(=O)O)CCN(CC(=O)O)CCN(CC(=O)O)CC2)C(=O)NCCCCCC(=O)NCCC[C@@H](NC(=O)CC[C@H](NC(=O)N[C@@H](CCC(=O)O)C(=O)O)C(=O)O)C(=O)O)cc1)C(C)(C)C	0.0014 % iD/g
CC(C)(C)[Si](F)(c1ccc(C(=O)NC[C@@H](NC(=O)CN2CCN(CC(=O)O)CCN(CC(=O)O)CCN(CC(=O)O)CC2)C(=O)N[C@H](CO)C(=O)NCCC(=O)NCCC(=O)NCCC[C@@H](NC(=O)CC[C@H](NC(=O)N[C@@H](CCC(=O)O)C(=O)O)C(=O)O)C(=O)O)cc1)C(C)(C)C	0.0013 % iD/g
CC(C)(C)[Si](F)(c1ccc(C(=O)NC[C@@H](NC(=O)[C@@H](CCCNC(N)=O)NC(=O)CC[C@H](C(=O)O)N2CCN(CC(=O)O)CCN(CC(=O)O)CCN(CC(=O)O)CC2)C(=O)NCCCCCC(=O)NCCC[C@@H](NC(=O)CC[C@H](NC(=O)N[C@@H](CCC(=O)O)C(=O)O)C(=O)O)C(=O)O)cc1)C(C)(C)C	0.0007 % iD/g
